target: Tau; assay: rat primary cortical neurons, FLIPR, 25 uM ASO
Bases are written 5' to 3'; sugars and linkages follow in the same order, as letters with counts (s phosphorothioate, o phosphodiester; PS: all linkages phosphorothioate). The collection does not say whether C is 5-methylated. l = locked nucleic acid (LNA); d = 2'-deoxy (DNA)
MEASURED_ATTRIBUTE: calcium oscillation score

A selection of reference data follows.
>  <RESIDUE_SEQUENCE>
ATCAATTTGGAAAGATGAAA (sugars l3 d14 l3, PS)

>  <calcium oscillation score>
10.4 % of control

$$$$
>  <RESIDUE_SEQUENCE>
CCACCTCCTGGTTTAT (sugars l3 d10 l3, PS)

>  <calcium oscillation score>
104 % of control

$$$$
>  <RESIDUE_SEQUENCE>
AAGAGGCACAAGTCCT (sugars l3 d10 l3, PS)

>  <calcium oscillation score>
81.6 % of control

$$$$
>  <RESIDUE_SEQUENCE>
CCAGTTACCATCATACA (sugars l2 d12 l3, PS)

>  <calcium oscillation score>
91.8 % of control

$$$$
>  <RESIDUE_SEQUENCE>
CTTCTCAGCCACTGTT (sugars l3 d10 l3, PS)

>  <calcium oscillation score>
67.9 % of control

$$$$
>  <RESIDUE_SEQUENCE>
GCTCCATATTCCTGCCCAAG (sugars l3 d14 l3, PS)

>  <calcium oscillation score>
34.2 % of control

$$$$
>  <RESIDUE_SEQUENCE>
ACCTTGCTCAGGTCAACTGG (sugars l3 d14 l3, PS)

>  <calcium oscillation score>
2.59 % of control

$$$$
>  <RESIDUE_SEQUENCE>
GCCATATTTCAACTCTT (sugars l2 d11 l4, PS)

>  <calcium oscillation score>
57.7 % of control

$$$$

Requested field: calcium oscillation score. Item: ATCCTGGTGGCGTTGGCCTG (sugars l3 d14 l3, PS)
0 % of control

Requested field: calcium oscillation score. Item: CGAAACCAAGGTCCCACCAG (sugars l3 d14 l3, PS)
40.4 % of control

Requested field: calcium oscillation score. Item: ACTTTATTTCCAAATTCACTTTTAC (sugars l3 d18 l4, PS)
35.4 % of control

* * *

target: Tau; test: rat primary cortical neurons, FLIPR, 25 uM ASO
Bases are written 5' to 3'; sugars and linkages follow in the same order, as letters with counts (s phosphorothioate, o phosphodiester; PS: all linkages phosphorothioate). The collection does not say whether C is 5-methylated. l = locked nucleic acid (LNA); d = 2'-deoxy (DNA)
Documented calcium oscillation score across a set of sequences

A selection of reference data follows.
>  <RESIDUE_SEQUENCE>
CATGCTTACACACCACAC (sugars l2 d13 l3, PS)

>  <SYSTEM>
Tau

>  <OBSERVED>
73.5 % of control

$$$$
>  <RESIDUE_SEQUENCE>
TGAAGTCAAGCTTCTCAGAT (sugars l3 d14 l3, PS)

>  <SYSTEM>
Tau

>  <OBSERVED>
0 % of control

$$$$

Requested field: calcium oscillation score. Item: CAACAATCCAACCACTAA (sugars l4 d10 l4, PS)
74.1 % of control

Requested field: calcium oscillation score. Item: CCCCTCCATTAAGAACCT (sugars l1 d15 l2, PS)
88.6 % of control

Requested field: calcium oscillation score. Item: TCTCAAGTCTTATTCTC (sugars l3 d11 l3, PS)
38.6 % of control

Requested field: calcium oscillation score. Item: CCCACCCAAACTCCAAGT (sugars l2 d13 l3, PS)
69.3 % of control

Requested field: calcium oscillation score. Item: CTCCTAATTTTGCACT (sugars l4 d10 l2, PS)
44.2 % of control

Requested field: calcium oscillation score. Item: TCTCAGATTTTACTTCC (sugars l4 d11 l2, PS)
49.3 % of control

Requested field: calcium oscillation score. Item: AGCAATAGCAAACAG (sugars l3 d9 l3, PS)
52.8 % of control

Requested field: calcium oscillation score. Item: TCTCAGTGGAGCCGATCTTG (sugars l3 d14 l3, PS)
0 % of control

Requested field: calcium oscillation score. Item: CCCCACTTTTAATTAAATTT (sugars l3 d15 l2, PS)
97 % of control
